# Lookup of reported cell viability keyed by entry
Tested on: SEM cells
experimental_details: cell viability relative to DMSO control; higher = less cytotoxic
condition_notes: RPMI 5 mM glucose + 10% FBS; 48 h; 0.0211 µM
readout_kind: cell viability (%)

>  <molecule>
COC1=CC=CC(=C1N)\C2=C\C(=O)C3=C(O2)C=CC=C3

>  <readout_kind>
cell viability

>  <quantitative_readout>
121

$$$$
>  <molecule>
CO/C1=C/C(C)=C\[C@@H](C)[C@@H](O)[C@@H](C)C/C(C)=C\C=C/[C@H](OC)[C@@H]([C@@H](C)[C@@H](O)[C@H](C)[C@@]2(O)C[C@@H](O)[C@H](C)[C@@H](C(C)C)O2)OC1=O

>  <readout_kind>
cell viability

>  <quantitative_readout>
46.8

$$$$
>  <molecule>
COC1=CC=C(C=C1O)C/2=C/C(=O)C3=C(O2)C=C(O)C=C3O

>  <readout_kind>
cell viability

>  <quantitative_readout>
94.3

$$$$
>  <molecule>
CN1CCCC(CC1)N2\N=C(CC3=CC=C(Cl)C=C3)/C4=C(C=CC=C4)C2=O (stereo not given)

>  <readout_kind>
cell viability

>  <quantitative_readout>
79.5

$$$$
>  <molecule>
NC(=O)C1CCCc2c1[nH]c1ccc(Cl)cc21 (stereo not given)

>  <readout_kind>
cell viability

>  <quantitative_readout>
133

$$$$

* * *

Let's look at some compounds and their measured cell viability.
Tested on: P12-Ichikawa
experimental_details: cell viability relative to DMSO control; higher = less cytotoxic
condition_notes: RPMI 5 mM glucose + 10% FBS; 48 h; 0.0632 µM
readout_kind: cell viability (%)

>  <compound>
O=C(Nc1ncc(SCCN2CCCC2)s1)[C@]1(c2ccc([S+](=O)([O-])C3CC3)cc2)C[C@H]1C1CCCCC1

>  <test_target>
P12-Ichikawa

>  <quantitative_readout>
108

$$$$
>  <compound>
Oc1cccc(-c2nc(N3CCOCC3)c3oc4ncccc4c3n2)c1

>  <test_target>
P12-Ichikawa

>  <quantitative_readout>
110

$$$$
>  <compound>
COc1ccc(Nc2nccc(NCCO)n2)cc1

>  <test_target>
P12-Ichikawa

>  <quantitative_readout>
89.8

$$$$
>  <compound>
NC(=O)C1CCCc2c1[nH]c1ccc(Cl)cc21 (centres undefined)

>  <test_target>
P12-Ichikawa

>  <quantitative_readout>
108

$$$$
>  <compound>
C[C@H]1[C@@H](C(=O)C[C@H]2O[C@@H]3O[C@]4(C)CC[C@H]5[C@H](C)CC[C@@H]([C@H]2C)[C@@]35OO4)O[C@@H]2O[C@]3(C)CC[C@H]4[C@H](C)CC[C@@H]1[C@@]24OO3

>  <test_target>
P12-Ichikawa

>  <quantitative_readout>
120

$$$$
>  <compound>
CN1c2ccccc2C(=O)N2CCc3c([nH]c4ccccc34)C21 (centres undefined)

>  <test_target>
P12-Ichikawa

>  <quantitative_readout>
121

$$$$
>  <compound>
CN1CCC[C@@H]1CCO[C@](C)(c1ccccc1)c1ccc(Cl)cc1

>  <test_target>
P12-Ichikawa

>  <quantitative_readout>
108

$$$$
>  <compound>
NCCCCNCCCN

>  <test_target>
P12-Ichikawa

>  <quantitative_readout>
114

$$$$
>  <compound>
O=C(Oc1ccc([N+](=O)[O-])cc1)N1CCC(C(O)(c2ccc3c(c2)OCO3)c2ccc3c(c2)OCO3)CC1

>  <test_target>
P12-Ichikawa

>  <quantitative_readout>
91.3

$$$$
>  <compound>
CCCCC(C=O)NC(=O)C(CC(C)C)NC(=O)OCc1ccccc1 (centres undefined)

>  <test_target>
P12-Ichikawa

>  <quantitative_readout>
91.6

$$$$
>  <compound>
COCCOc1nc(-c2ccc(Cl)c(Cl)c2)n(-c2ccc(NC(=O)CCl)cc2)n1

>  <test_target>
P12-Ichikawa

>  <quantitative_readout>
98.9

$$$$
>  <compound>
Cc1cnc(C(=O)O)c[n+]1[O-]

>  <test_target>
P12-Ichikawa

>  <quantitative_readout>
120

$$$$
>  <compound>
COc1ccc2[nH]c([S+]([O-])Cc3ncc(C)c(OC)c3C)nc2c1 (centres undefined)

>  <test_target>
P12-Ichikawa

>  <quantitative_readout>
85.1

$$$$
>  <compound>
CN(C)CC[C@H](c1ccc(Cl)cc1)c1ccccn1

>  <test_target>
P12-Ichikawa

>  <quantitative_readout>
80.8

$$$$
>  <compound>
COc1cc([C@H]2Oc3cc([C@H]4Oc5cc(O)cc(O)c5C(=O)[C@@H]4O)ccc3O[C@@H]2CO)ccc1O

>  <test_target>
P12-Ichikawa

>  <quantitative_readout>
113

$$$$
>  <compound>
COC[C@H](c1ccc(C(F)(F)F)cc1)N1CCN(C2(C)CCN(C(=O)c3c(C)ncnc3C)CC2)C[C@H]1C.O=C(O)/C=C\C(=O)O

>  <test_target>
P12-Ichikawa

>  <quantitative_readout>
106

$$$$
>  <compound>
C[C@]12CC[C@@H]3c4ccc(O)cc4CC[C@H]3[C@@H]1C[C@@H](O)[C@@H]2O

>  <test_target>
P12-Ichikawa

>  <quantitative_readout>
125

$$$$
>  <compound>
CCC(=C/[C@H](C)C/C=C/C(C)=C/[C@@H](C)C(=O)[C@@H](C)[C@H](O)[C@@H](C)C/C(C)=C/C(=O)O)/C=C/[C@@H]1OC(=O)C=C[C@@H]1C

>  <test_target>
P12-Ichikawa

>  <quantitative_readout>
121

$$$$
>  <compound>
O=C\1N(N\C=C1[N]2C=CN=N2)C3=NC=NC(=C3)N4CCOCC4

>  <test_target>
P12-Ichikawa

>  <quantitative_readout>
74.8

$$$$

* * *

Tested on: SEM cells
experimental_details: cell viability relative to DMSO control; higher = less cytotoxic
condition_notes: HPLM + 10% dialyzed FBS; 48 h; 15.4 µM
Here the recorded cell viability is given for each entry.

>  <compound>
CCCCCCOC(=O)/N=C(/N)c1ccc(NCc2nc3cc(C(=O)N(CCC(=O)OCC)c4ccccn4)ccc3n2C)cc1

>  <cell viability, %>
137

$$$$
>  <compound>
CCN(CC)CCCCNc1ncc2c(n1)N(C)C(=O)N(c1c(Cl)c(OC)cc(OC)c1Cl)C2

>  <cell viability, %>
48.3

$$$$
>  <compound>
CC1(C)CNc2cc(NC(=O)c3cccnc3NCc3ccncc3)ccc21

>  <cell viability, %>
93

$$$$
>  <compound>
CCN(C(=O)C/1=C(O)/C2=C(C=CC=C2Cl)N(C)C1=O)C3=CC=CC=C3

>  <cell viability, %>
3.62

$$$$
>  <compound>
NC(=O)c1cccc2cn(-c3ccc([C@@H]4CCCNC4)cc3)nc12

>  <cell viability, %>
63.8

$$$$
>  <compound>
CN1C(=O)C[C@H](C(=O)N[C@@H](Cc2cnc[nH]2)C(=O)N2CCC[C@H]2C(N)=O)NC1=O

>  <cell viability, %>
97.4

$$$$
>  <compound>
NC(=O)c1cccc2nc(-c3ccc([C@H]4CCCN4)cc3F)[nH]c12

>  <cell viability, %>
39.8

$$$$
>  <compound>
CC(C)c1cnn2c(NCc3ccccc3)cc(NCCCCCCN)nc12

>  <cell viability, %>
106

$$$$
>  <compound>
Cc1cc(Nc2cc(CN3CCOCC3)c3nc(C)c(Cc4ccc(Cl)cc4F)n3n2)[nH]n1

>  <cell viability, %>
22.9

$$$$
>  <compound>
Cc1ccc([S+](=O)([O-])Nc2nc3ccccc3nc2Nc2ccc3nsnc3c2)cc1

>  <cell viability, %>
73.5

$$$$
>  <compound>
CN(C)CC[C@H](c1ccc(Cl)cc1)c1ccccn1

>  <cell viability, %>
83.8

$$$$
>  <compound>
COc1ccc(Nc2nccc(NCCO)n2)cc1

>  <cell viability, %>
75.4

$$$$
>  <compound>
O=C\1N(N\C=C1[N]2C=CN=N2)C3=NC=NC(=C3)N4CCOCC4

>  <cell viability, %>
15.8

$$$$
>  <compound>
COC[C@H](c1ccc(C(F)(F)F)cc1)N1CCN(C2(C)CCN(C(=O)c3c(C)ncnc3C)CC2)C[C@H]1C.O=C(O)/C=C\C(=O)O

>  <cell viability, %>
95.4

$$$$
>  <compound>
CC(C)C[C@H](NC(=O)CNC(=O)c1cc(Cl)ccc1Cl)B(O)O

>  <cell viability, %>
4.58

$$$$
>  <compound>
O=C(O)COCCN1CCN(C(c2ccccc2)c2ccc(Cl)cc2)CC1 (stereo not given)

>  <cell viability, %>
119

$$$$
>  <compound>
C[C@H]1[C@@H](C(=O)C[C@H]2O[C@@H]3O[C@]4(C)CC[C@H]5[C@H](C)CC[C@@H]([C@H]2C)[C@@]35OO4)O[C@@H]2O[C@]3(C)CC[C@H]4[C@H](C)CC[C@@H]1[C@@]24OO3

>  <cell viability, %>
75.4

$$$$
>  <compound>
Cc1[nH]c(/C=C2\C(=O)Nc3ccccc32)c(C)c1CCC(=O)O

>  <cell viability, %>
26.5

$$$$
>  <compound>
CN1\C(=C(\O)C2=C(C=CC=C2)[S+]1([O-])=O)C(=O)NC3=CC=CC=N3

>  <cell viability, %>
63.3

$$$$
>  <compound>
CCCCC(C=O)NC(=O)C(CC(C)C)NC(=O)OCc1ccccc1 (stereo not given)

>  <cell viability, %>
81.1

$$$$
>  <compound>
Cc1cncc2cccc([S+](=O)([O-])N3CCCN(C(=O)CN)C[C@@H]3C)c12

>  <cell viability, %>
66.7

$$$$
>  <compound>
NC/1=N/C(=O)N(/C=C1F)[C@H]2CS[C@H](CO)O2

>  <cell viability, %>
142

$$$$
>  <compound>
Nc1cc(C(F)(F)F)c(-c2cc(N3CCOCC3)nc(N3CCOCC3)n2)cn1

>  <cell viability, %>
6.54

$$$$
>  <compound>
C/C(O)=C(\C#N)C(=O)Nc1cc(Br)ccc1Br

>  <cell viability, %>
32.2

$$$$
>  <compound>
OC(=O)C(CC/1=C/C(=O)NC2=CC=CC=C12)NC(=O)C3=CC=C(Cl)C=C3 (stereo not given)

>  <cell viability, %>
121

$$$$
